- System: S. cerevisiae growth in glucose medium, OD600, 48 h
- protocolDescription: S. cerevisiae growth inhibition on glucose, dose response, glucose medium, OD600, dry powder (AID 602187)

| molecule | studySystem | AC50 |
| --- | --- | --- |
| Cc1ccc(-c2nc3c(Cl)cc(Cl)cc3c(=O)n2O)cc1 | S. cerevisiae growth in glucose medium, OD600, 48 h | 2.01 µM |
| Oc1c(CN2CCc3ccccc3C2)cc(Cl)c2cccnc12 | S. cerevisiae growth in glucose medium, OD600, 48 h | 15.3 µM |
| C=CCNC(=S)N/N=C(\C)c1ccccn1 | S. cerevisiae growth in glucose medium, OD600, 48 h | 6.93 µM |
| O=C(NNC(=S)Nc1ccc(Cl)c(Cl)c1)c1ccccn1 | S. cerevisiae growth in glucose medium, OD600, 48 h | 22 µM |
| Oc1c(C(c2ccccc2Cl)N2CCCCC2)ccc2cccnc12 (stereo unspecified) | S. cerevisiae growth in glucose medium, OD600, 48 h | 16.3 µM |
| O=C(Nc1nc(-c2ccccn2)cs1)c1ccc(Br)s1 | S. cerevisiae growth in glucose medium, OD600, 48 h | 0.737 µM |
| CCCC(=O)NC(c1cccs1)c1cc(Cl)c2cccnc2c1O (stereo unspecified) | S. cerevisiae growth in glucose medium, OD600, 48 h | 5.88 µM |
| O=C(Nc1nc(-c2ccccn2)cs1)c1ccc(Cl)s1 | S. cerevisiae growth in glucose medium, OD600, 48 h | 1.75 µM |
| CN1CCN(C(c2ccc(C(F)(F)F)cc2)c2ccc3cccnc3c2O)CC1 (stereo unspecified) | S. cerevisiae growth in glucose medium, OD600, 48 h | 3.32 µM |
| O=C(Oc1c(Cl)cc(Cl)c2cccnc12)c1ccco1 | S. cerevisiae growth in glucose medium, OD600, 48 h | 0.346 µM |
| Cc1ccc(C(=O)Nc2nc(-c3ccccn3)cs2)cc1 | S. cerevisiae growth in glucose medium, OD600, 48 h | 6.06 µM |
